System: Mouse primary hepatocytes
ASSAY_EXPLANATION: 14C-acetate incorporation into total lipids in mouse primary hepatocytes
Assay type: cell-based
TEST_CONTEXT: incorporation of 14C-acetate in primary mouse hepatocyte total lipids, 4 hours
READOUT_LABEL: pIC50
Answers are plain numbers, as −log10 of the molar value.

Record request: pIC50 value, item CC(C)(CO)CCCCC(=O)CCCCC(C)(C)C(=O)O [B]
4.59

---

ASSAY_EXPLANATION: Single and repeat dose plasma and tissue pharmacokinetics in male C57BL/6 mice
Assay type: in vivo, mouse
TEST_CONTEXT: male, C57BL/6, mouse, plasma, po, 20 mg/kg/day, mouse plasma; 20 mg/kg/day PO; 4 consecutive days (QD × 4)
READOUT_LABEL: AUC(0-t) (µg·h/mL)
Give bare numbers, in µg·h/mL.

COMPOUND | UNIT_DESCRIPTOR | OBSERVED_MEASUREMENT
CC(C)(CCCCc1ccc(CCCCC(C)(C)C(=O)O)cc1)C(=O)O [Compound I-1] | µg·h/mL | 1170

Consider now this further compound.
Bench note: what AUC(0-t) did CC(C)(CCCCc1cccc(CCCCC(C)(C)C(=O)O)c1)C(=O)O [Compound I-32] show?
758
